EXPERIMENTAL SETUP: in formic acid, 288.15 K
READOUT TYPE: solubility (mole fraction)

[[record]]
compound = "CC(C(=O)O)c1ccc2c(c1)[nH]c1ccc(Cl)cc12 (stereo unspecified)"
readout_type = "solubility (mole fraction)"
readout_value = 0.000435


* * *

EXPERIMENTAL SETUP: in isopropanol, 308.15 K
READOUT TYPE: solubility (mole fraction)

[[record]]
molecule = "CC(C(=O)O)c1ccc2c(c1)[nH]c1ccc(Cl)cc12 (stereo unspecified)"
readout_type = "solubility (mole fraction)"
readout_value = 0.0359


* * *

EXPERIMENTAL SETUP: in n-octanol, 288.15 K
READOUT TYPE: solubility (mole fraction)

[[record]]
compound = "CC(C(=O)O)c1ccc2c(c1)[nH]c1ccc(Cl)cc12 (stereo unspecified)"
readout_type = "solubility (mole fraction)"
readout_value = 0.0143


* * *

EXPERIMENTAL SETUP: in glycerin, 308.15 K
READOUT TYPE: solubility (mole fraction)

[[record]]
molecule = "CC(C(=O)O)c1ccc2c(c1)[nH]c1ccc(Cl)cc12 (stereo unspecified)"
readout_value = 0.000437


* * *

EXPERIMENTAL SETUP: in n-octanol, 323.15 K
READOUT TYPE: solubility (mole fraction)

[[record]]
molecule = "CC(C(=O)O)c1ccc2c(c1)[nH]c1ccc(Cl)cc12 (stereo unspecified)"
readout_value = 0.0537


* * *

EXPERIMENTAL SETUP: in propylene glycol, 293.15 K
READOUT TYPE: solubility (mole fraction)

[[record]]
compound = "CC(C(=O)O)c1ccc2c(c1)[nH]c1ccc(Cl)cc12 (stereo unspecified)"
readout_value = 0.0069


* * *

EXPERIMENTAL SETUP: in ethylene glycol, 303.15 K
READOUT TYPE: solubility (mole fraction)

[[record]]
molecule = "CC(C(=O)O)c1ccc2c(c1)[nH]c1ccc(Cl)cc12 (stereo unspecified)"
readout_type = "solubility (mole fraction)"
readout_value = 0.00715


* * *

EXPERIMENTAL SETUP: in formic acid, 313.15 K
READOUT TYPE: solubility (mole fraction)

[[record]]
compound = "CC(C(=O)O)c1ccc2c(c1)[nH]c1ccc(Cl)cc12 (stereo unspecified)"
readout_type = "solubility (mole fraction)"
readout_value = 0.00201


* * *

EXPERIMENTAL SETUP: in acetic acid, 318.15 K
READOUT TYPE: solubility (mole fraction)

[[record]]
compound = "CC(C(=O)O)c1ccc2c(c1)[nH]c1ccc(Cl)cc12 (stereo unspecified)"
readout_value = 0.0216


* * *

EXPERIMENTAL SETUP: in n-propanol, 323.15 K
READOUT TYPE: solubility (mole fraction)

[[record]]
compound = "CC(C(=O)O)c1ccc2c(c1)[nH]c1ccc(Cl)cc12 (stereo unspecified)"
readout_value = 0.0743


* * *

EXPERIMENTAL SETUP: in n-propanol, 303.15 K
READOUT TYPE: solubility (mole fraction)

[[record]]
compound = "CC(C(=O)O)c1ccc2c(c1)[nH]c1ccc(Cl)cc12 (stereo unspecified)"
readout_type = "solubility (mole fraction)"
readout_value = 0.0378


* * *

EXPERIMENTAL SETUP: in isopropanol, 323.15 K
READOUT TYPE: solubility (mole fraction)

[[record]]
compound = "CC(C(=O)O)c1ccc2c(c1)[nH]c1ccc(Cl)cc12 (stereo unspecified)"
readout_value = 0.0601

